Values from patent US9469615B2

Target: hCRTH2 (Homo sapiens, UniProt Q9Y5Y4)
Construct: expressed in transfected cells; host or cells: HEK (human embryonic kidney) cells expressing hCRTH2; membrane preparation
Sequence (Q9Y5Y4 1-395): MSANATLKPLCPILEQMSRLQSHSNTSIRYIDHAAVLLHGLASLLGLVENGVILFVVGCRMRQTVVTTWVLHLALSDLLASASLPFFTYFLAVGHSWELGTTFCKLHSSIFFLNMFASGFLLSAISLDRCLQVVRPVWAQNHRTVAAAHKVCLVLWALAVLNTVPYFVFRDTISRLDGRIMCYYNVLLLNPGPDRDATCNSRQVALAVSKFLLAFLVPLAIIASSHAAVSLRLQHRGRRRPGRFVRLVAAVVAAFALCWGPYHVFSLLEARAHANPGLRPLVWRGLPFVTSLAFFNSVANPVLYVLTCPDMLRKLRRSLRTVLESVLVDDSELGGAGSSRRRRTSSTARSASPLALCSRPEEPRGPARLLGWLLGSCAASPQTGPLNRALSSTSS
Experiment: Radioligand binding assay ([3H]PGD2 competition, HEK-hCRTH2 membranes)
Conditions: [3H]PGD2 binding, rated A-E (Table A)
pKi: −log10 of the molar value.
ASSAY_ENDPOINT: pKi

These solved cases illustrate the format of a correct answer.
O=C(O)CCCCc1nc2cc(NC(=O)c3ccc(Cl)cc3)ccc2nc1-c1ccccc1 [11E] : 6.15 to 6.70
O=C(O)CCCCc1nc2cc(C(=O)NC3(c4ccccc4)CCC3)ccc2nc1-c1ccccc1 [15AM] : 7.70 to 8.68
O=C(O)CCCCc1nc2cc(C(=O)N3CCN(c4ccccc4)CC3)cnc2nc1-c1ccccc1 [14G] : 8.70 to 10.00
C[C@]1(c2ccccc2)CCCN(C(=O)c2ccc3nc(-c4ccccc4)c(CCCCC(=O)O)nc3c2)C1 [compound 170] : 7.70 to 8.68
O=C(O)CCCCc1nc2cc(C(=O)N3CC[C@@H](c4ccccc4)C3)c(F)cc2nc1-c1ccc(Cl)cc1 [compound 24] : 7.70 to 8.68

Reported pKi for hCRTH2 (Homo sapiens, UniProt Q9Y5Y4), given O=C(O)CCCCc1nc2cc(C(=O)N[C@H](c3ccccc3)C(F)(F)F)ccc2nc1-c1ccccc1 [15G] ? 7.70 to 8.68

// repeat for COc1ccc(C(C)NC(=O)c2ccc3nc(-c4ccccc4)c(CCCCC(=O)O)nc3c2)cc1 (centres unmarked) [15AU] and report 7.70 to 8.68

// repeat for C[C@@H](NC(=O)c1ccc2nc(-c3ccc(Cl)cc3)c(CCc3cccc(CC(=O)O)c3)nc2c1)c1ccc(F)cc1 [19G] and report 7.70 to 8.68

---

Molecular target: hCRTH2 (Homo sapiens)
Construct: expressed in transfected cells; host or cells: HEK (human embryonic kidney) cells expressing hCRTH2; membrane preparation
Experiment: Radioligand binding assay ([3H]PGD2 competition, HEK-hCRTH2 membranes)
Details: [3H]PGD2 binding, rated A-E (Table A)
pKi: −log10 of the molar value.
Reported values of pKi for individual entries

These solved cases illustrate the format of a correct answer.
O=C(O)CCCCc1nc2cc(C(=O)N3CCC[C@H](c4ccccc4)C3)ccc2nc1-c1ccccc1 [compound 143] : 7.70 to 8.68
C[C@@H](NC(=O)c1ccc2nc(-c3ccccc3)c(CC[C@H]3C[C@@H]3C(=O)O)nc2c1)c1ccc(Cl)cc1 [compound 233] : 7.70 to 8.68
O=C(O)CCCCc1nc2cc(C(=O)N3CC[C@@H](c4ccccc4)C3)ccc2nc1-c1ccccc1 [compound 140] : 8.70 to 10.00
O=C(O)CCCCc1nc2cc(C(=O)N[C@H]3CCc4ccccc43)ccc2nc1-c1ccc(Cl)cc1 [16AP] : 8.70 to 10.00
O=C(O)CCCCc1nc2cc(C(=O)N3CCC(c4ccccc4)C3)ccc2nc1-c1ccc(C(F)(F)F)cc1 (stereo in doubt) [compound 153] : 8.70 to 10.00

Would you mind telling me what pKi value was observed for O=C(O)CCCCc1nc2cc(C(=O)NC3Cc4ccccc4C3)ccc2nc1-c1ccc(C(F)(F)F)cc1 [compound 150] ? 8.70 to 10.00

// repeat for O=C(O)CCCCc1nc2cc(C(=O)N3CC(c4ccc(Cl)cc4)C3)ccc2nc1-c1ccccc1 [compound 252] and report 8.70 to 10.00

// repeat for O=C(O)CCCCc1nc2cc(C(=O)NCc3cccc(OC(F)(F)F)c3)ccc2nc1-c1ccc(Cl)cc1 [16AC] and report 8.70 to 10.00
